# System: SNB-75
# assay details: NCI tumour cell line growth inhibition, 48 h
Active and inactive are the calls of the source. Rule as the data show it: active = GI50 up to about 1.1 µM and inactive = higher.
measurement name: GI50

[
  {
    "compound": "CCc1c(-c2coc(CC/C(C)=C/c3ccccc3)n2)oc(OC)c(C)c1=O",
    "result value": "49.4 µM (inactive)"
  },
  {
    "compound": "Nc1ccc(-c2nn3c(COc4ccc(Cl)cc4)nnc3s2)cc1",
    "result value": "> 100 µM (inactive)"
  },
  {
    "compound": "COc1ccc2c(=O)cc(-c3ccncc3)oc2c1OC",
    "result value": "18.2 µM (inactive)"
  },
  {
    "compound": "CCC1(CC)C(=O)N(C(=O)c2ccc(Cl)cc2)N(C(=O)c2ccccc2Cl)C1=O",
    "result value": "16.1 µM (inactive)"
  },
  {
    "compound": "Nc1cc(O)nc(SC2=NC(N)CC(O)C2)n1 (stereo unspecified)",
    "result value": "> 100 µM (inactive)"
  },
  {
    "compound": "[N-]=[N+]=C1N=CN=C1c1nc[nH]n1",
    "result value": "32.3 µM (inactive)"
  },
  {
    "compound": "CC1NC(=O)C2=C1C(N)=NC(=O)C2 (stereo unspecified)",
    "result value": "> 100 µM (inactive)"
  },
  {
    "compound": "C=CC1(C)CCC(C(C)C(=O)C(C=C(C)C)OC(C)=O)C12C(=O)Oc1ccccc1C2=O (stereo unspecified)",
    "result value": "52.5 µM (inactive)"
  },
  {
    "compound": "COc1ccc2oc(-c3cccnc3)cc(=O)c2c1",
    "result value": "40.8 µM (inactive)"
  },
  {
    "compound": "COc1ccc(C2c3cc4c(cc3OC(N3CCOCC3)C2C)OCO4)cc1OC (stereo unspecified)",
    "result value": "2.99 µM (inactive)"
  },
  {
    "compound": "C=C1C2CC[C@@](C)(O)C2[C@H]2OC(=O)C(=C)[C@@H]2C[C@H]1O (stereo partly specified)",
    "result value": "43.4 µM (inactive)"
  }
]
